// provenance: patent US9555038B2

System: HCV replicon 1B
Assay: Cell-based HCV Replicon Assay B, replicon 1B
Settings: Hepatitis C virus
Values of IC50 strictly less than 3 pM map to criterion met, and values of at least 3 pM map to criterion not met.

[[record]]
compound = "COC(=O)NC(C(=O)N1CCC[C@H]1c1ncc(-c2ccc3c(c2)c(F)c2n3C(c3cnc(C4CC4)s3)Oc3cc(-c4cnc([C@@H]5CCCN5C(=O)[C@@H](NC(=O)OC)C(C)C)[nH]4)cc(F)c3-2)[nH]1)C1CCOC(C)(C)C1 (single isomer, unassigned)"
system_tested = "HCV replicon 1B"
class_label = "criterion met"


stdin: Here's an entry: COC(=O)N[C@H](C(=O)N1CCC[C@H]1c1ncc(-c2cc(F)c3c(c2)OC(c2cnc(C(C)C)s2)n2c-3cc3cc(-c4cnc([C@@H]5CCCN5C(=O)[C@@H](NC(=O)OC)C(C)C)[nH]4)ccc32)[nH]1)C(C)C (single isomer, unassigned) . Is its IC50 below 3 pM?
stdout: criterion met

stdin: Identify whether the compound COC(=O)N[C@H](C(=O)N1CCC[C@H]1c1ncc(-c2cc(F)c3c(c2)OC(c2cc(C)ns2)n2c-3cc3cc(-c4cnc([C@@H]5CCCN5C(=O)[C@@H](NC(=O)OC)C(C)C)[nH]4)ccc32)[nH]1)C(C)C (single isomer, unassigned) records IC50 below 3 pM.
stdout: criterion met

stdin: Problem: For the compound COC(=O)N[C@H](C(=O)N1CCC[C@H]1c1ncc(-c2cc(F)c3c(c2)OC(c2cnc(C4CC4)s2)n2c-3cc3cc(-c4cnc([C@@H]5CC6(C)CC6N5C(=O)[C@@H](NC(=O)OC)C(C)C)[nH]4)ccc32)[nH]1)C(C)C (stereo partly shown) , is IC50 under 3 pM?
stdout: criterion not met
